B1: TPR 5TU (parent)
chain: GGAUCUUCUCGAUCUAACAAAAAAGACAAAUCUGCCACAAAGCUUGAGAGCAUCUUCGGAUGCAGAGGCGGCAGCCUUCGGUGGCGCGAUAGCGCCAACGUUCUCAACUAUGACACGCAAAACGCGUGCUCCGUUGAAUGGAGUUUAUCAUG

Variants of: B1
procedure details: polymerase ribozyme fitness, log enrichment relative to wild type (log ratio); higher = more active; in vitro selection for triplet polymerase activity
Variants at the floor of the assay were thinned out.
recorded endpoint: polymerase ribozyme fitness (log ratio)

In [3]: df
Out[3]:
               mutant_designation   result
0                       A21C U55A  -0.0725
1  G84C C85A G92U C96A A97C C105U    -2.61
2        G42C U44A A52G G70U G83C   ≤ -4.2
3            C57G C72G C79U C103G   ≤ -4.2
4             A21G A41C G46A G65U   ≤ -4.2
5                       U55G C85U   -0.188

Summary for this variant, A98G A120G : polymerase ribozyme fitness (log ratio) is -0.401

Attribution: the RNAGym collection of RNA variant scans (doi:10.1073/pnas.2313332121)
